Where these numbers come from: paper PMC9516332

Please go through the items and note down their inhibition at 1 µM.
tested_target: panel of 255 wild-type kinases (Homo sapiens)
Sequence (Q8IW41 whole entry): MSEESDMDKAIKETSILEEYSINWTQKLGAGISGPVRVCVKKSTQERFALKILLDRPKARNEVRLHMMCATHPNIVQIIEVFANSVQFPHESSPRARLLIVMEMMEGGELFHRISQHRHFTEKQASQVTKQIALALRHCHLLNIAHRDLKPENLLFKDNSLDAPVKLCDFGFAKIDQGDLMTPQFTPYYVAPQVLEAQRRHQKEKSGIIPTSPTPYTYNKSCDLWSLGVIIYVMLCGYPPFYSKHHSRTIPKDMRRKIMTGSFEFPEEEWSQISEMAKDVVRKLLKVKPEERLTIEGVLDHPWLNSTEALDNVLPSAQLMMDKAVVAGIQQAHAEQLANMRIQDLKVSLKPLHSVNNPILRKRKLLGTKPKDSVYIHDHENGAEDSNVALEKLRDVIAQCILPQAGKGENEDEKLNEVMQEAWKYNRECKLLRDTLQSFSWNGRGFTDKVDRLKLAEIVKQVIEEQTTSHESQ
experiment_notes: Kinase panel profiling at 1 µmol/L (MSA or IMAP), percentage inhibition
Format: biochemical
assay_context: MAPKAPK5; 1 µmol/L single concentration; read-out: %-inhibition, MAPKAPK5
One number for each entry, in %.

See these solved cases before continuing.
C=CC(=O)N1CCC([C@@H]2CCNc3c(C(N)=O)c(-c4ccc(Oc5ccccc5)cc4)nn32)CC1; -3.6
Cn1cnc2c(F)c(Nc3ccc(Br)cc3Cl)c(C(=O)NOCCO)cc21; -3.2
FC(F)(F)c1ccc(CNc2ccc(Cc3c[nH]c4ncc(Cl)cc34)cn2)cn1; 0.469
Cn1cc(-c2cc3c(N4CCN(c5ncc([C@@](C)(N)c6ccc(F)cc6)cn5)CC4)ncnn3c2)cn1; 2
CO[C@]1(C(=O)N[C@@H](C)c2ccc(-n3cc(F)cn3)nc2)CC[C@H](c2nc(C)cc(Nc3cc(C)[nH]n3)n2)CC1; -3.49
COC(=O)N[C@@H](C)CNc1nccc(-c2cn(C(C)C)nc2-c2cc(Cl)cc(NS(C)(=O)=O)c2F)n1; -4

Batch: inhibition at 1 µM for all items listed.
1. CCN1CCN(c2ccc(Nc3cc(N(C)C(=O)Nc4c(Cl)c(OC)cc(OC)c4Cl)ncn3)cc2)CC1
2. CCc1nc(C(N)=O)c(Nc2ccc(N3CCC(N4CCN(C)CC4)CC3)c(OC)c2)nc1NC1CCOCC1

Resp:
1. -6
2. -0.923

Would you mind listing inhibition at 1 µM for each of the following compounds?
1. Cn1cnc2c(F)c(Nc3ccc(Br)cc3F)c(C(=O)NOCCO)cc21
2. COc1cc2ncnc(Nc3ccc(F)c(Cl)c3)c2cc1NC(=O)/C=C/CN1CCCCC1
3. C[C@H](Nc1ncnc2nc[nH]c12)c1cc2cccc(Cl)c2c(=O)n1-c1ccccc1
4. CN1CCN(c2ccc(C(=O)Nc3n[nH]c4ccc(Cc5cc(F)cc(F)c5)cc34)c(NC3CCOCC3)c2)CC1
5. CCN1C(=O)N(c2c(F)c(OC)cc(OC)c2F)Cc2cnc3[nH]c(CN4CCOCC4)cc3c21

Resp:
1: -4.73; 2: -4.47; 3: 0.859; 4: 0.65; 5: 2.28

Fill in inhibition at 1 µM for each of the 2 compounds listed.
1. Cc1cc(Nc2ncnc3ccc(NC4=NC(C)(C)CO4)cc23)ccc1Oc1ccn2ncnc2c1
2. Cc1nc(NC(=O)N2CCC[C@H]2C(N)=O)sc1-c1ccnc(C(C)(C)C(F)(F)F)c1

Resp:
2
-2.15

====

Test system: 134 cancer cell lines
experiment_notes: Cell viability assay (ATPlite, 72 hours), IC50 on cancer cell line panel
assay_context: Homo sapiens, HCT-15, read-out: IC50 in cell proliferation assay, cell line HCT 15
Would you mind telling me the reported IC50 of each entry?
One number for each entry, in µM.

Use the examples below as a reference point.
COC(=O)N[C@@H](C)CNc1nccc(-c2cn(C(C)C)nc2-c2cc(Cl)cc(NS(C)(=O)=O)c2F)n1; 2.94
COc1cc2ncnc(Nc3ccc(F)c(Cl)c3)c2cc1NC(=O)/C=C/CN1CCCCC1; 3.45
O=C(c1ccc(F)c(F)c1Nc1ccc(I)cc1F)N1CC(O)([C@@H]2CCCCN2)C1; 3.58

For every listed record, write down its IC50.
1. Cc1cc(Nc2ncnc3ccc(NC4=NC(C)(C)CO4)cc23)ccc1Oc1ccn2ncnc2c1
2. CO[C@]1(C(=O)N[C@@H](C)c2ccc(-n3cc(F)cn3)nc2)CC[C@H](c2nc(C)cc(Nc3cc(C)[nH]n3)n2)CC1

Resp:
[16.7, 5.73]
